System: RET (human), P07949 [M918T]
Sequence (P07949 whole entry M918T, looked up): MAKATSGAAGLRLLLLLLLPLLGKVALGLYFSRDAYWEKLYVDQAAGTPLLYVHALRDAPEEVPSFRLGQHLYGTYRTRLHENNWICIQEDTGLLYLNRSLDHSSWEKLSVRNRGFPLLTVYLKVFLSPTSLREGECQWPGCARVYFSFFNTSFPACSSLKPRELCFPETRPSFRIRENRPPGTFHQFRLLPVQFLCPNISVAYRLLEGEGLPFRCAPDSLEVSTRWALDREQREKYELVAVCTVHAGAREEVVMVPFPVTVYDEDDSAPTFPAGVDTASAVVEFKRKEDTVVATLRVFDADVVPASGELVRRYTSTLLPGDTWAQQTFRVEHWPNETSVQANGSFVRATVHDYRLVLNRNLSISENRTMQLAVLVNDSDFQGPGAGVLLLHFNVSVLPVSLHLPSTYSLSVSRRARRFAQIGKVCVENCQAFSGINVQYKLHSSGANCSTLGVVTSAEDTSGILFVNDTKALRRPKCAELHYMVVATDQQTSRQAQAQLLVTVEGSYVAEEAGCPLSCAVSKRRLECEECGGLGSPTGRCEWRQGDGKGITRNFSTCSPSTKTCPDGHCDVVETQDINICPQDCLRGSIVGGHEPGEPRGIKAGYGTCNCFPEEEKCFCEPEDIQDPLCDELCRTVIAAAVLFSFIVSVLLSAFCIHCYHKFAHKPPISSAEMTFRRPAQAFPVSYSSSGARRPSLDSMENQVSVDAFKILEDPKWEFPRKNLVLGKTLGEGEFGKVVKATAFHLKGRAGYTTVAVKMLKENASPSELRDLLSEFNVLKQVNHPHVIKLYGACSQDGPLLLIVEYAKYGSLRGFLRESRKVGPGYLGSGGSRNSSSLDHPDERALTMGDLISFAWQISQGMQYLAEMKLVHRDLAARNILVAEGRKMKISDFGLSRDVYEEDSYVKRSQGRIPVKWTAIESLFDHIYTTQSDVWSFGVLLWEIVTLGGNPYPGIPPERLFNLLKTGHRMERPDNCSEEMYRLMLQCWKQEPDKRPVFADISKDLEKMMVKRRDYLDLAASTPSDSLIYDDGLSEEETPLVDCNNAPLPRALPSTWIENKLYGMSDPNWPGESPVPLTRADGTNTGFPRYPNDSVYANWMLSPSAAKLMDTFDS
methodDescription: KINOMEscan competition binding
measurementContext: compound 10.0 µM
recordedEndpoint: kinase still bound, per cent of control (%)

These recorded examples may help you get a feel for the data.
# inputSmiles, kinase still bound, per cent of control [%]
rows = [
    ("COc1ccc(CNC(=O)Nc2ncc([N+](=O)[O-])s2)cc1", 100),
    ("Cn1cc(C2=C(c3ccc(Cl)cc3Cl)C(=O)NC2=O)c2ccccc21", 100),
]

[A] Cc1cnc(-c2cnc(NCCNc3ccc(C#N)cn3)nc2-c2ccc(Cl)cc2Cl)[nH]1
[B] O=C1Nc2cc(Br)ccc2/C1=C1/Nc2ccccc2/C1=N\O
Prompt: Endpoint returns whichever of A and B has the numerically higher kinase still bound, per cent of control. In your reply, give the label of the chosen option.
Response: A
(A: 100%, B: 0%)
